- ASSAY_OVERVIEW: Ratio of drug concentration in brain to plasma in Sprague-Dawley rat at 1 mg/kg, po measured after 2 hrs by LC-MS/MS analysis
- Format: ADME, organism-based
- TEST_CONTEXT: read-out: BPR
MEASUREMENT_LABEL: Kp at 2 h
Could you keep your reply to the number by itself?

Kp at 2 h in this record for O=S1(=O)NCc2cccc(-c3ccc(-c4ccccc4F)cc3)c2O1 : 2.15

* * *

- ASSAY_OVERVIEW: Ratio of drug concentration in brain to plasma in Sprague-Dawley rat at 1 mg/kg, po measured after 6 hrs by LC-MS/MS analysis
- Type: ADME, organism-based
- TEST_CONTEXT: read-out: BPR
MEASUREMENT_LABEL: Kp at 6 h
Could you keep your reply to the number by itself?

Kp at 6 h in this record for O=S1(=O)NCc2cccc(-c3ccc(-c4ccccc4F)cc3)c2O1 : 1.73
